Provenance of the data: patent US20180282310A1

Assay: Estimated solubility in solvents at room temperature (stepwise solvent addition)
Type: physicochemical
Settings: organic solvent or mixture, thermodynamic from solid; EtOH, room temperature
experimental endpoint: solubility

[[record]]
compound_smiles = "Cc1cc(-c2ccnc(Nc3cnn(C)c3)n2)ccc1CNC(=O)N1CC(OC(C)C)C1"
reported_result = "4400 to 5500 µg/mL"


----------
Assay: Estimated solubility in solvents at room temperature (stepwise solvent addition)
Type: physicochemical
Details: organic solvent or mixture, thermodynamic from solid; 1,4-Dioxane, room temperature
experimental endpoint: solubility

[[record]]
molecule = "Cc1cc(-c2ccnc(Nc3cnn(C)c3)n2)ccc1CNC(=O)N1CC(OC(C)C)C1 [Compound 1 Type A]"
experimental_endpoint = "solubility"
reported_result = "3500 to 4200 µg/mL"


----------
Assay: Estimated solubility in solvents at room temperature (stepwise solvent addition)
Format: physicochemical
Conditions: 20 °C, organic solvent or mixture, thermodynamic from solid; 1,4-dioxane, room temperature (RT, 20±3° C.)
Procedure: Approximately 2 mg solids were added into a 3-mL glass vial. Solvents in Table 39 were then added step wise (100 μL per step) into the vials until the solids were dissolved or a total volume of 2 mL was reached. Results summarized in Table 39 were used to guide the solvent selection in polymorph screening. […] Approximately 2 mg solids were added into a 3-mL glass vial. […]
experimental endpoint: solubility

[[record]]
compound = "Cc1cc(-c2ccnc(Nc3cnn(C)c3)n2)ccc1CNC(=O)N1CC(OC(C)C)C1.Cl [Compound 2 Type A]"
reported_result = "< 1000 µg/mL"


----------
Assay: Estimated solubility in solvents at room temperature (stepwise solvent addition)
Assay type: physicochemical
Details: 20 °C, organic solvent or mixture, thermodynamic from solid; Acetone, room temperature (RT, 20±3° C.)
Description: Approximately 2 mg solids were added into a 3-mL glass vial. Solvents in Table 39 were then added step wise (100 μL per step) into the vials until the solids were dissolved or a total volume of 2 mL was reached. Results summarized in Table 39 were used to guide the solvent selection in polymorph screening. […] Approximately 2 mg solids were added into a 3-mL glass vial. […]
experimental endpoint: solubility

[[record]]
compound = "Cc1cc(-c2ccnc(Nc3cnn(C)c3)n2)ccc1CNC(=O)N1CC(OC(C)C)C1.Cl [Compound 2 Type A]"
reported_result = "< 900 µg/mL"


----------
Assay: Estimated solubility in solvents at room temperature (stepwise solvent addition)
Assay type: physicochemical
Settings: 20 °C, organic solvent or mixture, thermodynamic from solid; CHCl3, room temperature (RT, 20±3° C.)
experimental endpoint: solubility

[[record]]
compound_smiles = "Cc1cc(-c2ccnc(Nc3cnn(C)c3)n2)ccc1CNC(=O)N1CC(OC(C)C)C1.Cl"
experimental_endpoint = "solubility"
reported_result = "< 1100 µg/mL"


----------
Assay: Estimated solubility in solvents at room temperature (stepwise solvent addition)
Format: physicochemical
Conditions: 20 °C, organic solvent or mixture, thermodynamic from solid; DMAc, room temperature (RT, 20±3° C.)
experimental endpoint: solubility

[[record]]
compound = "Cc1cc(-c2ccnc(Nc3cnn(C)c3)n2)ccc1CNC(=O)N1CC(OC(C)C)C1.Cl [Compound 2 Type A]"
reported_result = "22 to 44 mg/mL"


----------
Assay: Estimated solubility in solvents at room temperature (stepwise solvent addition)
Assay type: physicochemical
Settings: organic solvent or mixture, thermodynamic from solid; CHCl3, room temperature
experimental endpoint: solubility

[[record]]
compound = "Cc1cc(-c2ccnc(Nc3cnn(C)c3)n2)ccc1CNC(=O)N1CC(OC(C)C)C1 [Compound 1 Type A]"
experimental_endpoint = "solubility"
reported_result = "20 to 40 mg/mL"


----------
Assay: Estimated solubility in solvents at room temperature (stepwise solvent addition)
Type: physicochemical
Conditions: organic solvent or mixture, thermodynamic from solid; MeOH, room temperature
experimental endpoint: solubility

[[record]]
molecule = "Cc1cc(-c2ccnc(Nc3cnn(C)c3)n2)ccc1CNC(=O)N1CC(OC(C)C)C1 [Compound 1 Type A]"
reported_result = "12.5 to 25 mg/mL"


----------
Test: Estimated solubility in solvents at room temperature (stepwise solvent addition)
Assay type: physicochemical
Conditions: organic solvent or mixture, thermodynamic from solid; Toluene, room temperature
experimental endpoint: solubility

[[record]]
compound = "Cc1cc(-c2ccnc(Nc3cnn(C)c3)n2)ccc1CNC(=O)N1CC(OC(C)C)C1 [Compound 1 Type A]"
experimental_endpoint = "solubility"
reported_result = "< 900 µg/mL"


----------
Assay: Estimated solubility in solvents at room temperature (stepwise solvent addition)
Assay type: physicochemical
Details: organic solvent or mixture, thermodynamic from solid; DMAc, room temperature
experimental endpoint: solubility

[[record]]
compound_smiles = "Cc1cc(-c2ccnc(Nc3cnn(C)c3)n2)ccc1CNC(=O)N1CC(OC(C)C)C1"
experimental_endpoint = "solubility"
reported_result = "> 54 mg/mL"


----------
Test: Estimated solubility in solvents at room temperature (stepwise solvent addition)
Format: physicochemical
Conditions: 20 °C, organic solvent or mixture, thermodynamic from solid; EtOAc, room temperature (RT, 20±3° C.)
experimental endpoint: solubility

[[record]]
compound = "Cc1cc(-c2ccnc(Nc3cnn(C)c3)n2)ccc1CNC(=O)N1CC(OC(C)C)C1.Cl [Compound 2 Type A]"
reported_result = "< 1000 µg/mL"


----------
Assay: Estimated solubility in solvents at room temperature (stepwise solvent addition)
Assay type: physicochemical
Conditions: organic solvent or mixture, thermodynamic from solid; 2-MeTHF, room temperature
experimental endpoint: solubility

[[record]]
compound_smiles = "Cc1cc(-c2ccnc(Nc3cnn(C)c3)n2)ccc1CNC(=O)N1CC(OC(C)C)C1"
reported_result = "2200 to 2400 µg/mL"


----------
Test: Estimated solubility in solvents at room temperature (stepwise solvent addition)
Assay type: physicochemical
Details: organic solvent or mixture, thermodynamic from solid; ACN, room temperature
experimental endpoint: solubility

[[record]]
compound_smiles = "Cc1cc(-c2ccnc(Nc3cnn(C)c3)n2)ccc1CNC(=O)N1CC(OC(C)C)C1"
reported_result = "2300 to 2600 µg/mL"


----------
Assay: Estimated solubility in solvents at room temperature (stepwise solvent addition)
Assay type: physicochemical
Details: 20 °C, organic solvent or mixture, thermodynamic from solid; MeOH, room temperature (RT, 20±3° C.)
experimental endpoint: solubility

[[record]]
molecule = "Cc1cc(-c2ccnc(Nc3cnn(C)c3)n2)ccc1CNC(=O)N1CC(OC(C)C)C1.Cl [Compound 2 Type A]"
experimental_endpoint = "solubility"
reported_result = "> 34 mg/mL"


----------
Experiment: Estimated solubility in solvents at room temperature (stepwise solvent addition)
Format: physicochemical
Settings: 20 °C, organic solvent or mixture, thermodynamic from solid; DCM, room temperature (RT, 20±3° C.)
experimental endpoint: solubility

[[record]]
compound = "Cc1cc(-c2ccnc(Nc3cnn(C)c3)n2)ccc1CNC(=O)N1CC(OC(C)C)C1.Cl [Compound 2 Type A]"
reported_result = "< 1100 µg/mL"


----------
Assay: Estimated solubility in solvents at room temperature (stepwise solvent addition)
Type: physicochemical
Details: organic solvent or mixture, thermodynamic from solid; THF, room temperature
experimental endpoint: solubility

[[record]]
compound_smiles = "Cc1cc(-c2ccnc(Nc3cnn(C)c3)n2)ccc1CNC(=O)N1CC(OC(C)C)C1"
experimental_endpoint = "solubility"
reported_result = "6000 to 9000 µg/mL"


----------
Assay: Estimated solubility in solvents at room temperature (stepwise solvent addition)
Assay type: physicochemical
Details: organic solvent or mixture, thermodynamic from solid; MIBK, room temperature
experimental endpoint: solubility

[[record]]
compound_smiles = "Cc1cc(-c2ccnc(Nc3cnn(C)c3)n2)ccc1CNC(=O)N1CC(OC(C)C)C1"
reported_result = "< 1400 µg/mL"


----------
Assay: Estimated solubility in solvents at room temperature (stepwise solvent addition)
Type: physicochemical
Conditions: 20 °C, organic solvent or mixture, thermodynamic from solid; DMSO, room temperature (RT, 20±3° C.)
experimental endpoint: solubility

[[record]]
compound = "Cc1cc(-c2ccnc(Nc3cnn(C)c3)n2)ccc1CNC(=O)N1CC(OC(C)C)C1.Cl [Compound 2 Type A]"
experimental_endpoint = "solubility"
reported_result = "14 to 21 mg/mL"


----------
Test: Estimated solubility in solvents at room temperature (stepwise solvent addition)
Type: physicochemical
Settings: 20 °C, organic solvent or mixture, thermodynamic from solid; NMP, room temperature (RT, 20±3° C.)
experimental endpoint: solubility

[[record]]
compound = "Cc1cc(-c2ccnc(Nc3cnn(C)c3)n2)ccc1CNC(=O)N1CC(OC(C)C)C1.Cl [Compound 2 Type A]"
reported_result = "14.7 to 22 mg/mL"

